Target: HCMV polymerase (Human cytomegalovirus, UniProt P08546)
Construct: made in house; host or cells: recombinant baculovirus-infected SF-9 cells
Sequence (P08546 whole entry): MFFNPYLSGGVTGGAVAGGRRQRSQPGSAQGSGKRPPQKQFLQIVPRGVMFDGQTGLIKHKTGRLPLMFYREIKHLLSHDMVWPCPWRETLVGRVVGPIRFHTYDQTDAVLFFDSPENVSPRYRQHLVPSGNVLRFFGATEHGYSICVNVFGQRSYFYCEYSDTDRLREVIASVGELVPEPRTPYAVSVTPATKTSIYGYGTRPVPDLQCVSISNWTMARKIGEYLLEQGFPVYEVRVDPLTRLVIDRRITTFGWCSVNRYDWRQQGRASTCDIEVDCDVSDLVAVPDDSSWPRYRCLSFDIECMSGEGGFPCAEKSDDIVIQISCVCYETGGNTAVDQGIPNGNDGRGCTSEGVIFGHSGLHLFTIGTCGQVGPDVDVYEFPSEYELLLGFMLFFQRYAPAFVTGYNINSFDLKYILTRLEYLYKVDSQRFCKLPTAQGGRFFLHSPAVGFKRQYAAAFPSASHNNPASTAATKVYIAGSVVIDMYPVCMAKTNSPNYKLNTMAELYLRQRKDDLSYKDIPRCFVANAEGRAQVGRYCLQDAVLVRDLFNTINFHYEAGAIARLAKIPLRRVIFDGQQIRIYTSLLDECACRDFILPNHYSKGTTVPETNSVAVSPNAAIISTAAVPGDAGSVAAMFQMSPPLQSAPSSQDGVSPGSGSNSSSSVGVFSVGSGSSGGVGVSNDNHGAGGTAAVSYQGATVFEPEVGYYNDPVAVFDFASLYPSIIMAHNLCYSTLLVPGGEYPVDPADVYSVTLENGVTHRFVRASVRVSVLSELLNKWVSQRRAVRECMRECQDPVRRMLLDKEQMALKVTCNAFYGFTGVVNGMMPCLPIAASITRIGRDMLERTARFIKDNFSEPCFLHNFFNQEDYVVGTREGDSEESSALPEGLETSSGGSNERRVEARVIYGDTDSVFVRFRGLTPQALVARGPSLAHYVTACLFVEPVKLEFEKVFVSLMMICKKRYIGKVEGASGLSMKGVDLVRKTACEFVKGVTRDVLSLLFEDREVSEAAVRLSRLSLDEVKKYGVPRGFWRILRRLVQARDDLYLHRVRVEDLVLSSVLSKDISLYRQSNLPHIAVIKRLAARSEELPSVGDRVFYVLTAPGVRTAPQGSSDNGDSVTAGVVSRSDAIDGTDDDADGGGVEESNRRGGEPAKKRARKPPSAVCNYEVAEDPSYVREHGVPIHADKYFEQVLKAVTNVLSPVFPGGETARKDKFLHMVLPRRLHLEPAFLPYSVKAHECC
Test: HCMV polymerase scintillation proximity assay (SPA), modified version
Assay type: biochemical
Conditions: CMV polymerase; Table 1; modified assay with 4.5 mM DTT, compounds in 100% DMSO; read-out: Antiviral Selective Polymerase IC50 Values, CMV
Experimental: The HCMV polymerase assay is performed using a scintillation proximity assay (SPA) as described in several references, such as N. D. Cook, et al., Pharmaceutical Manufacturing International, pages 49-53 (1992); K. Takeuchi, Laboratory Practice, September issue (1992); U.S. Pat. No. 4,568,649 (1986); which are incorporated by reference herein. Reactions are performed in 96-well plates. […] Plates are incubated 10 min. at 37° C., then equilibrated to room temperature, and counted on a Packard Topcount. […]
pIC50: −log10 of the molar value.
measure: pIC50

pIC50 in this record for O=C(NCc1ccc(Cl)cc1)c1cnc2c(F)cc(SCCO)cc2c1O : 5.72

Measured pIC50, NC(=S)c1cc(F)c2ncc(C(=O)NCc3ccc(Cl)cc3)c(O)c2c1 : 4.96

Field pIC50 (entry O=C(NCc1ccc(Cl)cc1)c1cnc2ccc(C#CCO)cc2c1O ) reads 6.05

The compound listed as COc1cc(CCCO)cc2c(O)c(C(=O)NCc3ccc(Cl)cc3)cnc12 shows pIC50 equal to 6.57

Reported pIC50 ( O=C(NCc1ccc(Cl)cc1)c1cnc2c(F)cc(C#CCCO)cc2c1O ) = 5.28

Lab note: COc1cc(OC)c2ncc(C(=O)NCc3ccc(Cl)cc3)c(O)c2c1 gave pIC50 of 5.40

1. CC(O)C#Cc1cc(F)c2ncc(C(=O)NCc3ccc(Cl)cc3)c(O)c2c1 (stereo not drawn)
2. CC(C)(CCO)c1ccc2ncc(C(=O)NCc3ccc(Cl)cc3)c(O)c2c1
3. O=C(NCc1ccc(Cl)cc1)c1cnc2ccc(CN3CCOCC3)cc2c1O
**Query** Kindly order the items shown according to pIC50, from the highest value down. Sort and list the labels as requested.
**Result** 3, 2, 1

Taken from patent US6093732A.
